Catalogue of molecules with associated EC50
molecular target: Gal4 DNA binding domain fused to the LBD of LXRβ in HEK293 cells (Homo sapiens (Human), UniProt P55055); assay: cell-based
Sequence (P55055 222-460 limits assumed): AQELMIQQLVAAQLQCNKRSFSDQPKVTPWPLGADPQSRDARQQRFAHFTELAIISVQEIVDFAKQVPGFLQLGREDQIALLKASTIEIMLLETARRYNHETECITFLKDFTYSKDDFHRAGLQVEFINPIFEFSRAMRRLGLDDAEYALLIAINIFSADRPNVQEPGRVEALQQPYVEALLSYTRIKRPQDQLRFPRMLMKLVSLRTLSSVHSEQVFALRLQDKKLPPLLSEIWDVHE
measure name: EC50

molecule="CC(C)[C@@H]1CN(c2ccc(F)c(S(N)(=O)=O)c2)CCN1c1ncc(CO)c(C(F)(F)F)n1 [11-2]" value_observed="243 nM"
molecule="CC(C)(O)c1ccc(CN2CCN(c3cccc(S(C)(=O)=O)c3)C[C@H]2c2ccccc2)cc1 [10-11]" value_observed="> 20000 nM"
molecule="CCOC(=O)CN(C)C(=O)c1cnc(N2CCN(c3ccc(F)c(S(C)(=O)=O)c3)C[C@H]2C(C)C)nc1C(F)(F)F [17-16]" value_observed="> 20000 nM"
molecule="CC(C)[C@@H]1CN(c2ccc(C#N)c(S(C)(=O)=O)c2)CCN1c1ncc([C@@H](C)O)c(C(F)(F)F)n1 (single isomer, unassigned) [12-4]" value_observed="652 nM"
molecule="CC(C)[C@@H]1CN(c2ccc(F)c(S(C)(=O)=O)c2)CCN1c1ncc(C(=O)N(C)CCC(C)(C)O)c(C(F)(F)F)n1 [17-17]" value_observed="> 20000 nM"
molecule="CC(C)[C@@H]1CN(c2ccc(CO)c(S(C)(=O)=O)c2)CCN1c1ncc(C(C)(C)O)c(C(F)(F)F)n1 [10-7]" value_observed="235 nM"
molecule="C[C@H](c1ccc(C(F)(F)F)cc1)N1CCN(c2cccc(S(C)(=O)=O)c2)C[C@@H]1c1ccccc1 (single isomer, unassigned) [46-18]" value_observed="1430 nM"
molecule="CNS(=O)(=O)c1cc(N2CCN(c3ncc(C(=O)OC)c(C(F)(F)F)n3)[C@H](C(C)C)C2)ccc1F [9-6]" value_observed="74 nM"
molecule="CO[C@@H](C)[C@@H]1CN(c2ccc(CO)c(S(C)(=O)=O)c2)CCN1c1ncc(CO)c(C(F)(F)F)n1 (single isomer, unassigned) [11-4]" value_observed="347 nM"
molecule="CC(C)[C@H]1CN(c2cccc(S(C)(=O)=O)c2)CCN1CC1CCOCC1 [51-2]" value_observed="1360 nM"
molecule="CC(C)[C@H]1CN(c2ccc(CO)c(S(C)(=O)=O)c2)CCN1C[C@@H]1CC[C@H](C(F)(F)F)OC1 [Cpd No 49-4]" value_observed="20 nM"
molecule="CS(=O)(=O)c1cccc(N2CCN(Cc3ccc(C(F)(F)F)c(F)c3)[C@H](c3ccccc3)C2)c1 (single isomer, unassigned) [46-25]" value_observed="2560 nM"
molecule="CS(=O)(=O)c1cccc(N2CCN(CC3CCCOC3)[C@@H](c3ccccc3)C2)c1 (some centres unmarked) [51-4]" value_observed="> 20000 nM"
molecule="CC(C)[C@@H]1CN(c2ccc(F)c(S(C)(=O)=O)c2)CCN1c1ncc(Cc2ccc(C(C)(C)O)cc2)c(C(F)(F)F)n1 [Cpd No 31-1]" value_observed="> 20000 nM"

---

molecular target: LXR α LBD protein (Homo sapiens (Human), UniProt Q13133); experiment: Human LXRα coactivator recruitment FRET assay, agonist mode; format: biochemical; settings: agonist mode
Sequence (Q13133 209-447): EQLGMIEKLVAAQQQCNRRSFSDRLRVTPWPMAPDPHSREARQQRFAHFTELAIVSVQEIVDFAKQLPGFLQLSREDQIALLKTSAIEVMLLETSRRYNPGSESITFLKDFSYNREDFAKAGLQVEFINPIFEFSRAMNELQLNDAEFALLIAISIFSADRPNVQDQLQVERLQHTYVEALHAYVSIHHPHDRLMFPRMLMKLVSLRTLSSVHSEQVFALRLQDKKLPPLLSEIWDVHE
Rule: FRET LXRα efficacy under 40% gives False, otherwise True.

compound="CC1(C)CCC(CN2CCN(c3cccc(S(C)(=O)=O)c3)C[C@H]2c2ccccc2)CC1 [Cpd No 48-3]" class_name=False
compound="CC(C)[C@@H]1CN(c2ccc(F)c(S(C)(=O)=O)c2)CCN1c1nccc(C2CC2)n1 [7-10]" class_name=True
compound="CS(=O)(=O)c1cccc(N2CCN(Cc3ccc(OC(F)(F)F)cc3)[C@H](c3ccccc3)C2)c1 (single isomer, unassigned) [46-22]" class_name=True
compound="CS(=O)(=O)c1cc(N2CCN(Cc3ccc(C(F)(F)F)nc3)C(c3ccccc3)C2)ccc1CO (centres unmarked) [Cpd No 47-1]" class_name=True
compound="NS(=O)(=O)c1cccc(N2CCN(C[C@H]3CC[C@@H](C(F)(F)F)CC3)[C@@H](c3ccccc3)C2)c1 (single isomer, unassigned) [48-35]" class_name=True
compound="CS(=O)(=O)c1cc(N2CCN(C[C@H]3CC[C@H](C(F)(F)F)CC3)[C@H](c3ccccc3)C2)ccc1C(N)=O (single isomer, unassigned) [17-36]" class_name=True
compound="CS(=O)(=O)c1cccc(N2CCN(C[C@H]3CC[C@H](C(F)F)CC3)[C@@H](c3ccccc3)C2)c1 (single isomer, unassigned) [48-19]" class_name=False
compound="CS(=O)(=O)c1cc(N2CCN(C[C@H]3CC[C@@H](C(F)(F)F)CC3)[C@@H](c3ccccc3)C2)ccc1C(N)=O (single isomer, unassigned) [17-39]" class_name=True
compound="CC(C)c1ccc(CN2CCN(c3cccc(S(C)(=O)=O)c3)C[C@@H]2c2ccccc2)cc1 [46-8]" class_name=False
compound="CC(C)[C@@H]1CN(c2ccc(C#N)c(S(C)(=O)=O)c2)CCN1c1cccc(C(F)(F)F)n1 [7-38]" class_name=True
compound="Cc1cc(C)nc(N2CCN(c3cccc(S(C)(=O)=O)c3)C[C@H]2C(C)C)n1 [Cpd No 7-3]" class_name=False
